target_entity: Proto-oncogene tyrosine-protein kinase ROS (Homo sapiens)
pIC50: −log10 of the molar value.
measure_name: pIC50

Entry `CN1CCN(c2ccc(OC(F)(F)F)c(Nc3ncc4c(n3)-c3c(c(C(N)=O)nn3CCO)CC4)c2)CC1` : pIC50 on Proto-oncogene tyrosine-protein kinase ROS (Homo sapiens) = < 5.00

----------
target_entity: Tyrosine-protein kinase Lyn (Homo sapiens, UniProt P07948)
Sequence (P07948 whole entry): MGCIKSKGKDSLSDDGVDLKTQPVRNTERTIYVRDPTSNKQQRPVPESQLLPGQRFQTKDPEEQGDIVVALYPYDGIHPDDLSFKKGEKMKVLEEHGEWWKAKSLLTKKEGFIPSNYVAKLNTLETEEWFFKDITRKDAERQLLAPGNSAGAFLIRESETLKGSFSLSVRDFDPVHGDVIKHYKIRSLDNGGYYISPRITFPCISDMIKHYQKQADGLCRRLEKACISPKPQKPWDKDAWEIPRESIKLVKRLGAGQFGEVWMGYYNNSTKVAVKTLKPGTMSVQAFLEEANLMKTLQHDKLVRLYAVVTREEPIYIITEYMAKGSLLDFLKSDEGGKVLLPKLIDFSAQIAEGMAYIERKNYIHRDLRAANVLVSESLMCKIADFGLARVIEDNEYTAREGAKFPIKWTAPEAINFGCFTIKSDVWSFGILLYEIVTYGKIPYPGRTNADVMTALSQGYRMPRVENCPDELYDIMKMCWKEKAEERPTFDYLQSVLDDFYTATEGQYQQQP
pIC50: −log10 of the molar value.
measure_name: pIC50

Looking up CN1CCN(c2ccc(OC(F)(F)F)c(Nc3ncc4c(n3)-c3c(c(C(N)=O)nn3CCO)CC4)c2)CC1 [ONVANSERTIB] , I see its pIC50 listed as < 5.00

----------
target_entity: UniProt P35968
Sequence (P35968 whole entry): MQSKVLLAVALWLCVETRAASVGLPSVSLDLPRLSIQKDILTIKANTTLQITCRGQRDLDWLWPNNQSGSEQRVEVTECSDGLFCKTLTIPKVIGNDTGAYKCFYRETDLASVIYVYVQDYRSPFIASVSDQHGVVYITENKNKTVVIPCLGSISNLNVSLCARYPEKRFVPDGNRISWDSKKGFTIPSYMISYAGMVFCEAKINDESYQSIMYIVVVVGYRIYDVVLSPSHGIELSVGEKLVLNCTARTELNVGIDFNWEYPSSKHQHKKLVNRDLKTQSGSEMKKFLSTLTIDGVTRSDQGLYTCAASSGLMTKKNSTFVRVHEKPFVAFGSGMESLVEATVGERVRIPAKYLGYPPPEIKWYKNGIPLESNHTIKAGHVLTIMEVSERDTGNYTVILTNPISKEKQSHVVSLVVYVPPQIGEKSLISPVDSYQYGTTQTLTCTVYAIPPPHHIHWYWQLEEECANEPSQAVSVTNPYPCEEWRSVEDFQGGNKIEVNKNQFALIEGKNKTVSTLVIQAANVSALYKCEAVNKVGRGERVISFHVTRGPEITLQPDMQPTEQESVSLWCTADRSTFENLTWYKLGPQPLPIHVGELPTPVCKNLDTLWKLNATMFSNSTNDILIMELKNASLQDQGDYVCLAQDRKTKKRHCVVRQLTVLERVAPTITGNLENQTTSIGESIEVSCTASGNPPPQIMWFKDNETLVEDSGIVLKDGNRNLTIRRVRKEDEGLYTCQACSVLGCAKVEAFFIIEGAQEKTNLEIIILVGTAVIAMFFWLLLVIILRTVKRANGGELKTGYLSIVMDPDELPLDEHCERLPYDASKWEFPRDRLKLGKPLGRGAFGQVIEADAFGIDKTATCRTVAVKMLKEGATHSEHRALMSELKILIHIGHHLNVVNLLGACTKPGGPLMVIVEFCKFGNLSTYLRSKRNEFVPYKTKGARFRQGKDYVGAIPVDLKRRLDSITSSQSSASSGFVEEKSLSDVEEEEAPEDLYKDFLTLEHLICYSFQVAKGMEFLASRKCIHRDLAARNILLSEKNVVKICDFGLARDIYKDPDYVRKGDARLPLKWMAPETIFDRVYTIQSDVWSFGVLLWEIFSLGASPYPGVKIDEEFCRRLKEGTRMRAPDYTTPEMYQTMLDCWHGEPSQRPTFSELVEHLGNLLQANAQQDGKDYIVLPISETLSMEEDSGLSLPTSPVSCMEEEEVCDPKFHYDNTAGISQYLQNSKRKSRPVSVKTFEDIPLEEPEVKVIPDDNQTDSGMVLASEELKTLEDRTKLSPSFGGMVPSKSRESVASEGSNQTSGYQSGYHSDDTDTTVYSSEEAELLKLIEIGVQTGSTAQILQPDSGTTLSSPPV
measure_name: IC50

Looking up CN1CCN(c2ccc(OC(F)(F)F)c(Nc3ncc4c(n3)-c3c(c(C(N)=O)nn3CCO)CC4)c2)CC1 [ONVANSERTIB] , I see its IC50 listed as > 10 µM

----------
target_entity: MAP kinase-activated protein kinase 2 (Homo sapiens, UniProt P49137)
Sequence (P49137 whole entry): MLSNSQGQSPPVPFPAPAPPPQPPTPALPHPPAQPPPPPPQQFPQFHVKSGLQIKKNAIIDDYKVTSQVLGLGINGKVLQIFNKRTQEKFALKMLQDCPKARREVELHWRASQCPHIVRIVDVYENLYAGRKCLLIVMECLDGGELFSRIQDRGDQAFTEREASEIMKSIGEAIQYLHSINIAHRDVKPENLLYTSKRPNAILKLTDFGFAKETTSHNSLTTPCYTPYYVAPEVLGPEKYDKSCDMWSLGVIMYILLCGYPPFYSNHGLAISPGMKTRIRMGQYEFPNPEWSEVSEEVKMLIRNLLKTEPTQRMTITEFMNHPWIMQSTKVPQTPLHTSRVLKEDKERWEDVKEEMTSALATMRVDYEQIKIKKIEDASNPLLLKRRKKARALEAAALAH
assay_overview: Inhibition of MAPKAPK2 assessed as [33P]gamma-ATP incorporation into substrate after 60 mins by gamma counting
pIC50: −log10 of the molar value.
measure_name: pIC50

Looking up CN1CCN(c2ccc(OC(F)(F)F)c(Nc3ncc4c(n3)-c3c(c(C(N)=O)nn3CCO)CC4)c2)CC1 [ONVANSERTIB] , I see its pIC50 listed as < 5.00

----------
target_entity: Protein kinase C beta type (Homo sapiens, UniProt P05771)
Sequence (P05771 whole entry): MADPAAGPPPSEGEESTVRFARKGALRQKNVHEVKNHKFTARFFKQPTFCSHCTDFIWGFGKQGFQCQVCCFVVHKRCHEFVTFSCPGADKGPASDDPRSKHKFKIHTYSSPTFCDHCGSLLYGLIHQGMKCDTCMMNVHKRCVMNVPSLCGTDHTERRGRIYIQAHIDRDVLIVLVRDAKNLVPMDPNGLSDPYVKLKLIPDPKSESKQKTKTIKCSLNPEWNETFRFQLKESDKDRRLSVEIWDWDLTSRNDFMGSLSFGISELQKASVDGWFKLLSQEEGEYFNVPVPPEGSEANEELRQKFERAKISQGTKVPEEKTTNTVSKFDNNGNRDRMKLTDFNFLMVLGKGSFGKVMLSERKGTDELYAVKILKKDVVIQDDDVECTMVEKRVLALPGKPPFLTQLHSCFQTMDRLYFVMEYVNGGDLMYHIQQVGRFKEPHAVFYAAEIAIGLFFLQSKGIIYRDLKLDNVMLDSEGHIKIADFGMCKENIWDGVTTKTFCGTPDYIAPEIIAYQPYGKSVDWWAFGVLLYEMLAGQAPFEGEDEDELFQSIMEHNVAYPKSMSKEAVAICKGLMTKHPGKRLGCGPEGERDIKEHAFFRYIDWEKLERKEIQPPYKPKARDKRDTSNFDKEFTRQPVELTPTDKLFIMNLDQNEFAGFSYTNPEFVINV
pIC50: −log10 of the molar value.
measure_name: pIC50

Looking up `CN1CCN(c2ccc(OC(F)(F)F)c(Nc3ncc4c(n3)-c3c(c(C(N)=O)nn3CCO)CC4)c2)CC1` , I see its pIC50 listed as < 5.00

----------
Property: solubility; scope: individual compounds
assay_overview: Solubility of compound at pH 7
Type: physicochemical
assay_conditions: buffer
Give the value, in units of µM, as a plain number.

Observe how each entry below is paired with its result.
compound	solubility (µM)
CN1CCN(c2ccc(OC(F)(F)F)c(Nc3ncc4c(n3)-c3c(c(C(N)=O)nn3C)CC4)c2)[C@H](CO)C1	166
CN1CCN(c2ccc(OC(F)(F)F)c(Nc3ncc4c(n3)-c3c(c(C(N)=O)nn3CCO)CC4)c2)CC1	201
CN1CCN(c2ccc(OC(F)(F)F)c(Nc3ncc4c(n3)-c3c(c(C(N)=O)nn3CCN)CC4)c2)CC1	202
CN1CCN(c2ccc(OC(F)(F)F)c(Nc3ncc4c(n3)-c3c(c(C(N)=O)nn3C)CC4)c2)[C@@H](CO)C1	121

--- query ---
Looking up `CN1CCN(CCCNc2ccc(OC(F)(F)F)c(Nc3ncc4c(n3)-c3c(c(C(N)=O)nn3C)CC4)c2)CC1` , I see its solubility listed as 186

----------
target_entity: Serine/threonine-protein kinase pim-1 (Homo sapiens, UniProt P11309)
Sequence (P11309 whole entry): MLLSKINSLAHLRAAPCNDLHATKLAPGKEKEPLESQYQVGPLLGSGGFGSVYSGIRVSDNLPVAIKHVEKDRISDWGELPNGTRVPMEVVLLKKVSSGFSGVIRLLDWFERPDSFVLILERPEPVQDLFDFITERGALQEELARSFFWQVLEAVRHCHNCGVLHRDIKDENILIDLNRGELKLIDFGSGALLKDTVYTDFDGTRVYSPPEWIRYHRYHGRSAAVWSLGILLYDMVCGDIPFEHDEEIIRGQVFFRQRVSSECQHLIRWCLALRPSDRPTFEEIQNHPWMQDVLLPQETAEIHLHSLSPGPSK
measure_name: IC50

Entry `CN1CCN(c2ccc(OC(F)(F)F)c(Nc3ncc4c(n3)-c3c(c(C(N)=O)nn3CCO)CC4)c2)CC1` : IC50 on Serine/threonine-protein kinase pim-1 (Homo sapiens, UniProt P11309) = > 10 µM

----------
target_entity: Cyclin-dependent kinase 2/cyclin E1 (Homo sapiens, UniProt P24941)
assay_overview: Inhibition of CDK2/CYCE assessed as [33P]gamma-ATP incorporation into substrate after 60 mins by gamma counting
measure_name: IC50

Entry `CN1CCN(c2ccc(OC(F)(F)F)c(Nc3ncc4c(n3)-c3c(c(C(N)=O)nn3CCO)CC4)c2)CC1` : IC50 on Cyclin-dependent kinase 2/cyclin E1 (Homo sapiens, UniProt P24941) = > 10 µM
